Assay: in vitro
Conditions: human
measureName: CC50 at 6 days

Request the reported CC50 at 6 days associated with NC(=O)c1ncn([C@@H]2O[C@H](CO)[C@@H](O)[C@H]2O)n1
> 100 µg/mL

----------
Assay: in vitro
Conditions: human
measureName: CC50

Request the reported CC50 associated with NC(=O)c1ncn([C@@H]2O[C@H](CO)[C@@H](O)[C@H]2O)n1 [Ribavirin]
> 100 µg/mL
